B1: MLH1 (parent)
chain: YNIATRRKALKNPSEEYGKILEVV

- Variants of: B1
- experiment-notes: protein stability index of a GFP-peptide fusion (GPS, HEK-293T) (PSI 1-6); higher = more stable;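 also: lentivirally expressed fusions sorted by FACS into six bins by GFP to DsRed ratio, PSI derived from sequencing read proportions per bin multiplied by bin number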
- test-context: c terminus: a fixed tail appended
measured-quantity: protein stability index
Write no unit; give the number alone.

Please review the entries below; each comes with its answer.
INSERT INTO results (sequence_entry, measured_quantity, test_value) VALUES
  ('YNIATCRKALKNPSEEYGKILEVV [R6C]', 'protein stability index', 1.89),
  ('YNIDTRRKALKNPSEEYGKILEVV [A4D]', 'protein stability index', 3.15),
  ('YNIATRRKALKNPSEEYGKILLVV [E22L]', 'protein stability index', 2.54),
  ('YNFATRRKALKNPSEEYGKILEVV [I3F]', 'protein stability index', 2.85),
  ('YNIATRRKALKNPSEEYGKILEVG [V24G]', 'protein stability index', 3.32),
  ('YNIATRRKALKNPSEEYGKVLEVV [I20V]', 'protein stability index', 4.05);

QUERY: # query: protein stability index of entry YNIAARRKALKNPSEEYGKILEVV [T5A]
RESULT: 2.54

QUERY: What value of protein stability index has been reported for the following variant? YNIATRRKALKNPSEEYGKILETV [V23T]
RESULT: 2.97

QUERY: Field request: protein stability index | item: YNIYTRRKALKNPSEEYGKILEVV [A4Y]
RESULT: 2.12

QUERY: Give its protein stability index value. Item: YNIITRRKALKNPSEEYGKILEVV [A4I]
RESULT: 2.54

QUERY: So what's the measured protein stability index for this one? YNIAIRRKALKNPSEEYGKILEVV [T5I]
RESULT: 2.17

QUERY: Please look up its protein stability index: YNIATRRKALKNPSAEYGKILEVV [E15A]
RESULT: 2.1

QUERY: Name the reported protein stability index value associated with the variant YNIATRRKALKNPSNEYGKILEVV [E15N]
RESULT: 2.43

QUERY: I would be grateful if you could share the reported protein stability index for YNIALRRKALKNPSEEYGKILEVV [T5L] .
RESULT: 2.85

QUERY: Look up protein stability index for this variant: YNRATRRKALKNPSEEYGKILEVV [I3R]
RESULT: 2.71

QUERY: What does the data say about its protein stability index? Entry: YNIATLRKALKNPSEEYGKILEVV [R6L]
RESULT: 1.79

QUERY: Suppose we examine the variant YQIATRRKALKNPSEEYGKILEVV [N2Q] ; what protein stability index value has been reported?
RESULT: 2.51

QUERY: For the variant shown here, YNIATRRKALKNPQEEYGKILEVV [S14Q] , give the reported protein stability index.
RESULT: 2.79

QUERY: Form field: reported protein stability index of YNIATRRKAPKNPSEEYGKILEVV [L10P]
RESULT: 3.23

QUERY: So what does the record say about protein stability index for YNIATRRKALKNPSEEYGKICEVV [L21C] ?
RESULT: 4.26

QUERY: Returns the measured protein stability index for the input variant. Input: YNHATRRKALKNPSEEYGKILEVV [I3H]
RESULT: 2.69

QUERY: Please look up its protein stability index: YNIATRRKALKNPSEEYGKMLEVV [I20M]
RESULT: 3.13

QUERY: Recorded protein stability index of YNIATRRKALKNPSEEYGKSLEVV [I20S] , please.
RESULT: 4.11

QUERY: Can you look up the measured protein stability index of YNIATRRKALKNPSEEYGKILEYV [V23Y] for me?
RESULT: 2.5

QUERY: Looking for the measured protein stability index of YNDATRRKALKNPSEEYGKILEVV [I3D] , can you help?
RESULT: 3.19
